- SYSTEM: recombinant rat MMP9 (rat pro‐MMP9) (rat) (UniProt P50282)
MEASUREMENT_TYPE: IC50 of inhibition of rat MMP9 activity (cleavage of 5-FAM/QXL 520 FRET peptide, 37°C) (nM)
Write down the numeric answer in nM and omit the unit.

Take a look at these entries with their results.
BINDER	UNIT_ABBREV	OBSERVED_VALUE
N‐TIMP3 (13.9 kDa N‐domain; aa 1‐120) (domain or fragment) CTCSPSHPQDAFCNSDIVIRAKVVGKKLVKEGPFGTLVYTIKQMKMYRGFTKMPHVQYIHTEASESLCGLKLEVNKYQYLLTGRVYDGKMYTGLCNFVERWDQLTLSQRKGLNYRYHLGC	nM	2.4
Wild‐type TIMP3 (Tissue Inhibitor of Metalloproteinase 3) (natural protein, endogenous glycosylation site at Asn184) CTCSPSHPQDAFCNSDIVIRAKVVGKKLVKEGPFGTLVYTIKQMKMYRGFTKMPHVQYIHTEASESLCGLKLEVNKYQYLLTGRVYDGKMYTGLCNFVERWDQLTLSQRKGLNYRYHLGCNCKIKSCYYLPCFVTSKNECLWTDMLSNFGYPGYQSKHYACIRQKGGYCSWYRGWAPPDKSIINATDP	nM	0.9

With those in mind, consider the next binder.
Exercise: Give the measured IC50 of inhibition of rat MMP9 activity (cleavage of 5-FAM/QXL 520 FRET peptide, 37°C) of v2‐HSA (TIMP3v2 fused with human serum albumin) (protein, additional glycosylation site (F34N)) CTCSPSHPQDAFCNSDIVIRASVVGKKLVKEGPNGTLVYTIKQMKMYRGFTKMPHVQYIHTEASESLCGLKLEVNKYQYLLTGRVYDGKMYTGLCNFVERWDQLTLSQRKGLNYRYHLGCNCKIKSCYYLPCFVTSKNECLWTDMLSNFGYPGYQSKHYACIRQKGGYCSWYRGWAPPDKSIINATDP .
Solution: 65
